I'd be grateful if you could share measured normalized growth for these entries.
experiment: chemical genetic growth profiling, strain panel (AID 1159580);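 also: tested at 20 µM; growth read once vehicle control cultures reached saturation at 30 °C; 1 = growth at the plate median or of vehicle wells; lower values mean less growth of the strain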; conditions: S. cerevisiae deletion strains, growth OD, locus YCL016C, strain dcc1, stronger effect = lower value
Out of some 5,500 compounds screened, about 2,000 (36%) were called active. Not shown: some 18% with an inconclusive outcome. The list shows a part of the results.
One number for each entry.

| compound | observed |
| --- | --- |
| CCOC(=O)CCCCCCCCCCCCC1C=CCC1 (stereo not given) | 0.981 |
| O=C1O[C@@H](CO)[C@H](O)[C@@H](O)[C@@H]1O | 1.01 |
| Nc1nc2ncc(CNc3ccc(C(=O)N[C@@H](CCC(=O)O)C(=O)O)cc3)nc2c(=O)[nH]1 | 0.998 |
| Nc1nc(N)c2nc(CNc3ccc(C(=O)NC(CCC(=O)O)C(=O)O)cc3)cnc2n1 (stereo not given) | 0.975 |
| CN(C)CCCO[C@H]1[C@@H](C(O)CO)OC2OC(C)(C)O[C@@H]21 (stereo not given in full) | 0.973 |

Please state normalized growth for every compound in the list that follows.
1. CC(=O)O[C@H]1CC[C@@]2(C)C(=CCC3C2CC[C@]2(C)C(=O)CCC32)C1 (stereo not given in full)
2. CN(Cc1cnc2nc(N)nc(N)c2n1)c1ccc(C(=O)NC(CCC(=O)O)C(=O)O)cc1 (stereo not given)
3. Nc1nc2c(c(=O)[nH]1)N(C=O)C(CNc1ccc(C(=O)N[C@@H](CCC(=O)O)C(=O)O)cc1)CN2 (stereo not given in full)
4. CC(=O)O[C@H]1CC[C@@]2(C)C(=CCC3C2CC[C@@]2(C)C3CC[C@@H]2C(C)CCCC(C)C)C1 (stereo not given in full)
5. O=C(O)CCCCC1SCC2NC(=O)NC21 (stereo not given)

Result:
1: 0.917; 2: 0.867; 3: 1.02; 4: 1.01; 5: 0.995

====

assay: chemical genetic growth profiling, strain panel (AID 1159580); settings: S. cerevisiae deletion strains, growth OD, locus YCL061C, strain MRC1 (second series)
The whole screen tested about 5,500 compounds, of which about 2,000 (36%) were called active. About 18% were inconclusive and are not listed. Cut-off read from the data, not from the text of the source: active = normalized growth mostly below about 0.91 (no sharp cut-off); inconclusive = no clear call, values can overlap the other calls; inactive = mostly above about 0.92. Some of the results follow.
Answer with one of the outcomes given here: active, inactive

| compound | cat |
| --- | --- |
| C=CCN1CCc2cccc3c2[C@H]1Cc1ccc(O)c(O)c1-3 | active |
| N#Cc1c(-c2ccccc2)no[n+]1[O-] | inactive |
| COc1ccc(/C=C/C(=O)Nc2ccccc2C(=O)O)cc1OC | inactive |
| NCCCC(N)(C(=O)O)C(F)F (stereo not given) | inactive |

Q: Answer briefly: the call reported for `C=CCN1CC[C@]23c4c5ccc(O)c4O[C@@H]2/C(=N\N=C2\CC[C@@]4(O)C6Cc7ccc(O)c8c7[C@@]4(CCN6CC=C)[C@@H]2O8)CC[C@@]3(O)C1C5` in this assay.
Result: inactive

====

Provide the reported normalized growth of each item.
assay: chemical genetic growth profiling, strain panel (AID 1159580); details: S. cerevisiae deletion strains, growth OD, locus YDR052C, strain DBF4, stronger effect = lower value
About 2,000 (36%) of roughly 5,500 compounds were called active. Another 18% or so got no clear call; they are omitted. The list shows a part of the results.
Answers are plain numbers.

Guide cases for normalized growth, answers given:
| structure | observed |
| --- | --- |
| CCOC(=O)CCc1cc(N=Cc2cc(Br)ccc2O)c(O)c(N=Cc2cc(Br)ccc2O)c1 | 0.953 |
| CCc1cc2c(cc1-c1csc(C/C(N)=N\O)n1)C(C)(C)CCC2(C)C | 0.974 |
| Cc1nc(C(F)(F)F)c(C(=O)O/N=C(/N)c2ccc(Cl)cc2)s1 | 0.988 |
| O=C(Nc1ccc(Cl)cc1Cl)c1cnccc1C(F)(F)F | 0.977 |
| CSc1cccc(N2C(=O)CC(c3c(Cl)cccc3Cl)CC2=O)c1 | 0.988 |

Now, please, on to the next compound.
Q: What value of normalized growth has been reported for the following compound? `O=C(Nc1ccccn1)c1cc(-c2ccccc2)c(C(F)(F)F)s1`
Result: 0.955

====

test: chemical genetic growth profiling, strain panel (AID 1159580);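 also: tested at 20 µM; growth read once vehicle control cultures reached saturation at 30 °C; 1 = growth at the plate median or of vehicle wells; lower values mean less growth of the strain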; settings: S. cerevisiae deletion strains, growth OD, locus YLR342W, strain FKS1 (second series)
Screen size: about 5,500 compounds; about 2,000 (36%) were called active. Inconclusive results (about 18%) are left out. Rule as the data show it: active = normalized growth mostly below about 0.91 (no sharp cut-off); inconclusive = no clear call, values can overlap the other calls; inactive = mostly above about 0.92. Some of the results follow.
Write down the outcome that applies. Available outcomes: active, inactive

| compound | cat |
| --- | --- |
| CCn1cc(C(=O)O)c(=O)c2cnc(N3CCCC3)nc21 | inactive |
| NC(=O)c1cc[n+](CC2=C(C(=O)O)N3C(=O)C(NC(=O)C(c4ccccc4)S(=O)(=O)[O-])C3SC2)cc1 (stereo not drawn) | inactive |
| CC(=O)O[C@H]1CC[C@@]2(C)C(=CCC3C2CC[C@@]2(C)C3CC[C@@H]2C(C)CCCC(C)C)C1 (stereo partly drawn) | inactive |
| O=C(/C=C/c1ccc(O)c(O)c1)O[C@@H]1C[C@](O)(C(=O)O)C[C@@H](O)[C@H]1O | inactive |
| CCn1cc(C(=O)O)c(=O)c2cc3c(cc21)OCO3 | inactive |

Q: Which outcome was assigned to CC1CC2C(C(O)CC3(C)C2CCC3(O)C(=O)COC(=O)CCC(=O)O)C2(C)C=CC(=O)C=C12 (stereo not drawn) in this test?
Result: inactive

Q: Tell me the assay call for `COc1ccccc1N1CCNCC1` please.
Result: inactive

Q: Returns: the outcome recorded for CC[C@@H](C(=O)O)[C@@H]1O[C@@H]([C@@H](C)[C@H](O)[C@H](C)C(=O)[C@H](CC)[C@H]2O[C@]3(C=C[C@@H](O)[C@]4(CC[C@@](C)(C5CC[C@](O)(CC)[C@H](C)O5)O4)O3)[C@H](C)C[C@@H]2C)[C@@H](C)C[C@H]1C (stereo partly drawn) in this assay.
Result: active

====

experiment: chemical genetic growth profiling, strain panel (AID 1159580);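 also: tested at 20 µM; growth read once vehicle control cultures reached saturation at 30 °C; 1 = growth at the plate median or of vehicle wells; lower values mean less growth of the strain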; conditions: S. cerevisiae deletion strains, growth OD, locus YGR229C, strain SMI1, stronger effect = lower value
The whole screen tested about 5,500 compounds, of which about 2,000 (36%) were called active. Not shown: some 18% with an inconclusive outcome. Some of the results follow.
experimentalEndpoint: normalized growth

| structure | normalized growth |
| --- | --- |
| O=C1N=C(O)CN1/N=C\c1ccc(-c2ccc([N+](=O)[O-])cc2)o1 | 0.997 (inactive) |
| NC(=O)N/N=C\c1ccc([N+](=O)[O-])o1 | 1.07 (inactive) |
| CC(C)(C)OC(=O)N1CCN(Cc2ccccc2)CC1 | 1.02 (inactive) |

// next entry
Q: # query: normalized growth of entry `O=C1CN(/N=C\c2ccc([N+](=O)[O-])o2)C(=O)N1`
Result: 0.958 (inactive)

====

experiment: chemical genetic growth profiling, strain panel (AID 1159580);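 also: tested at 20 µM; growth read once vehicle control cultures reached saturation at 30 °C; 1 = growth at the plate median or of vehicle wells; lower values mean less growth of the strain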; details: S. cerevisiae deletion strains, growth OD, locus YMR231W, strain pep5, stronger effect = lower value
The whole screen tested about 5,500 compounds, of which about 2,000 (36%) were called active. Inconclusive results (about 18%) are left out. Some of the results follow.
I'd be grateful if you could share measured normalized growth for these entries.
One number for each entry.

Please review the entries below; each comes with its answer.
| compound | experimentalEndpoint | observed |
| --- | --- | --- |
| O=C(O)c1cc(=O)c2c(OCC(O)COc3cccc4oc(C(=O)O)cc(=O)c34)cccc2o1 | normalized growth | 0.971 |
| C=CCN1CC[C@]23c4c5ccc(O)c4OC2C(=O)CC[C@@]3(O)[C@H]1C5 (stereo not given in full) | normalized growth | 0.977 |
| CCCNC(C)C(=O)Nc1ccccc1C (stereo not given) | normalized growth | 1.01 |
| CC(=O)O[C@H]1C[C@@H](OC(C)=O)C(C)(C)C2C[C@@H](OC(C)=O)[C@]3(C)C(CC[C@@]4(C)[C@H](c5ccoc5)C(=O)[C@H]5O[C@]543)[C@]21C (stereo not given in full) | normalized growth | 0.978 |
| Nc1nccs1 | normalized growth | 0.99 |

For each listed entry, give its normalized growth.
1. Nc1nc2c(c(=O)[nH]1)N(C=O)C(CNc1ccc(C(=O)N[C@@H](CCC(=O)O)C(=O)O)cc1)CN2 (stereo not given in full)
2. CC12CCC3C(CC=C4CC(O)CCC43C)C1CCC2=O (stereo not given)
3. CC(=O)O[C@H]1CC[C@@]2(C)C(=CCC3C2CC[C@@]2(C)C3CC[C@@H]2C(C)CCCC(C)C)C1 (stereo not given in full)
4. Nc1nc(N)c2nc(CNc3ccc(C(=O)NC(CCC(=O)O)C(=O)O)cc3)cnc2n1 (stereo not given)
5. NC(=O)c1cnccn1

Result:
1: 0.964; 2: 0.989; 3: 0.965; 4: 1; 5: 0.982
